Hello, the source for this data is paper PMC10039067, in case you need it.

Target: PDZD7 PDZ1 (UniProt E9Q9W7)
Sequence (E9Q9W7 81-167): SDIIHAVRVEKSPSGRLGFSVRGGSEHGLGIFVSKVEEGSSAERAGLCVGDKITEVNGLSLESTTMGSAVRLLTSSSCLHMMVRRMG
Test: ITC; MicroCal iTC200, 25 °C; 50 mM tris pH 7.5-8.0, 300 mM NaCl, 1 mM DTT, 1 mM EDTA; cell 20–50 µM, syringe 400–800 µM; one-site binding model
EXPERIMENTAL_ENDPOINT: pKd
In textbook form, pKd equals minus log to base ten of the concentration in mol/L.

Task: Could you tell me which pKd is on file for GHSSGLYVDEEELMNAIKGFSSVTKEHTAFTDTHL (domain or fragment) [USH2A-CT (Short, S)] ?
Output: 4.18
